These data points were gathered from PubChem BioAssay (NCI).

growth inhibition values for the compounds below.
# Method notes: NCI Yeast Anticancer Drug Screen. Data for the wt2 strain (AID 169);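 also: 0% = growth of vehicle-treated yeast cultures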
# Study conditions: S. cerevisiae wt2 strain growth inhibition; at 33.0 µM; active compounds read high
This is part of a sample that, as a whole, favours compounds with a hit. Of some 79,000 tested, about 15% had one in any assay.

[
  {
    "Compound": "CCc1[nH]nc(C(N)=O)c1N=NN(C)C",
    "growth inhibition / %": 0
  },
  {
    "Compound": "Cc1ccc(CNc2ccc(Br)cc2)cc1",
    "growth inhibition / %": 35
  },
  {
    "Compound": "CC(=O)C1=C(O)C2(C)c3c(O)c(C)c(O)c(C(C)=O)c3OC2(Sc2ccccc2)CC1=O (stereo unspecified)",
    "growth inhibition / %": 54
  },
  {
    "Compound": "CCCCCCCCCCCCCC(=O)OC(C)CCC1CCCO1 (stereo unspecified)",
    "growth inhibition / %": -3
  },
  {
    "Compound": "O=S1(=O)c2ccccc2N=C(c2ccccc2Cl)CC1c1ccc(F)cc1 (stereo unspecified)",
    "growth inhibition / %": 7
  },
  {
    "Compound": "O=Nc1ccc(Nc2ccccc2)cc1",
    "growth inhibition / %": 54
  }
]

----------
# Method notes: NCI Yeast Anticancer Drug Screen. Data for the mec2-1 strain (AID 157)
# Study conditions: S. cerevisiae mec2-1 strain, at 100.0 µM
This is part of a sample that, as a whole, favours compounds with a hit. Of some 79,000 tested, about 15% had one in any assay. The source made the active and inactive calls. Rule as the data show it: active = growth inhibition above about 70%; inactive = the rest.
Possible outcomes: yes = active, no = inactive

[
  {
    "Molecule": "O=C(O)c1[nH]c(=O)c2ccccc2c1Nc1ccccc1",
    "Discrete label": "no"
  },
  {
    "Molecule": "O=Cc1coc2ccccc2c1=O",
    "Discrete label": "no"
  },
  {
    "Molecule": "Cc1ccc2c(ccc(/C=C/c3ccc(O)c4ncccc34)[n+]2C)c1",
    "Discrete label": "yes"
  },
  {
    "Molecule": "S=C1SCN(CCc2ccccc2)CN1CCc1ccccc1",
    "Discrete label": "no"
  },
  {
    "Molecule": "C(=N/NC1=NCCN1)/c1c2ccccc2c(/C=N\\NC2=NCCN2)c2ccccc12",
    "Discrete label": "yes"
  },
  {
    "Molecule": "CCCCC(=O)c1c(O)nc2sccn2c1=O",
    "Discrete label": "yes"
  },
  {
    "Molecule": "COc1ccc(C(C#N)=C2C=CC(=NO)C=C2)cc1",
    "Discrete label": "yes"
  },
  {
    "Molecule": "CCOC(=O)CNC(=O)c1[nH]cnc1/N=N/N(C)C",
    "Discrete label": "yes"
  },
  {
    "Molecule": "CNc1ccc(Cc2c[nH]c3ccccc23)cc1",
    "Discrete label": "no"
  },
  {
    "Molecule": "Cc1ccc(S(=O)(=O)N/N=C/C2(c3ccccc3)c3ccccc3-c3ccccc32)cc1",
    "Discrete label": "yes"
  },
  {
    "Molecule": "O=C1C(Cl)=C(Cl)C(Cl)(Cl)C(Cl)C1(Cl)Cl (stereo not drawn)",
    "Discrete label": "yes"
  },
  {
    "Molecule": "COc1ccc(S(=O)(=O)N/N=C\\c2cc([N+](=O)[O-])cc(I)c2O)c(OC)c1OC",
    "Discrete label": "yes"
  },
  {
    "Molecule": "CCN(CC)CC(O)c1cc(-c2ccc(Cl)cc2)nc2c(-c3ccccc3)cccc12 (stereo not drawn)",
    "Discrete label": "yes"
  },
  {
    "Molecule": "Clc1cc(-c2ccccc2)nc2ccccc12",
    "Discrete label": "yes"
  },
  {
    "Molecule": "COc1cc([C@@H]2c3cc4c(cc3[C@@H](OC3OC5COC(C)OC5C(O)C3O)[C@H]3COC(=O)[C@H]23)OCO4)cc(OC)c1O (stereo partly drawn)",
    "Discrete label": "no"
  },
  {
    "Molecule": "O=C1c2ccccc2CCC1(Br)Br",
    "Discrete label": "yes"
  },
  {
    "Molecule": "COC(=O)/C=C1/OC(c2ccc(Br)cc2)=C(Br)C1=O",
    "Discrete label": "yes"
  },
  {
    "Molecule": "COc1ccc(N2CN(C)CSC2=S)cc1",
    "Discrete label": "yes"
  },
  {
    "Molecule": "CCCCOC(=O)CSSCC(=O)OCCCC",
    "Discrete label": "yes"
  },
  {
    "Molecule": "CCNc1ccc2c(c1)C(=O)N(OS(C)(=O)=O)C2=O",
    "Discrete label": "no"
  },
  {
    "Molecule": "CC1CCC2(C(=O)O)CCC3(C)C(=CCC4C5(C)CC(O)C(O)C(C)(CO)C5C(O)CC43C)C2C1C (stereo not drawn)",
    "Discrete label": "yes"
  },
  {
    "Molecule": "Nc1nc(N)c2c(n1)CCC(S(=O)(=O)c1ccc3ccccc3c1)C2 (stereo not drawn)",
    "Discrete label": "yes"
  },
  {
    "Molecule": "CN(NC(=O)/C(=C/c1ccc(O)cc1)NC(=O)c1ccccc1)c1ccnc2cc(Cl)ccc12",
    "Discrete label": "yes"
  }
]
